Values from paper PMC3711457

target: Fis (wild type) (UniProt P0A6R3 1-98); experiment: EMSA; 50 ug/ml poly dI/dC; 60-fold better than F28; half-life 14 min; EMSA with 50 ug/ml poly dI/dC as in ref 19; buffer, salt, pH and temperature not stated in the material; conditions: protein: recombinant; chain copies: 2; label: 32P; 27 bp duplex
Sequence (P0A6R3 whole entry): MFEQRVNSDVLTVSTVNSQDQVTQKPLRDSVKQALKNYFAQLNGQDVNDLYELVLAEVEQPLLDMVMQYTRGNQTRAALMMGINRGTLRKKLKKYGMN
pKd: −log10 of the molar value.
Reported endpoint: pKd

Inquiry: For the binder F28-dI (dsDNA, inosine replaces the guanines of the three central G/C pairs (ICI), on both strands) DNA 1: AAATTTGTTTGAGCGTTGAGCAAATTT DNA 2: AAATTTGCTCAACGCTCAAACAAATTT , what pKd is on record?
Reply text: > 9.00
